- ASSAY_SUMMARY: Peak concentration of drug in rat plasma after oral dosing at 20 mg/kg. Concentration of parent compound was measured before (free) and after (total) beta-glucuronidase treatment; total 3.8 uM
- Assay type: ADME, organism-based
- Design: dose 20 mg/kg, route oral
- TEST_SETTINGS: read-out: Plasma level
MEASURE_NAME: Cmax (nM)
Numeric answer only, unit nM assumed.

**Q:** Entry under review: Oc1cc2c(cc1Cc1ccccc1)OC(CCc1ccccc1)C2 (stereo unspecified) . Reported Cmax?
**A:** 1600

---

Exercise: for every item that follows, state its recorded IC50.
- MEASUREMENT_TARGET: Arachidonate 5-lipoxygenase (Homo sapiens)
- ASSAY_SUMMARY: Inhibitory activity of LTB4 production in human PMN
The answer is to be given in nM; state only the numeric part.

**Q:** Report IC50 for Oc1cc2c(cc1CCCOc1ccc(C3N=NN=N3)cc1)OC(CCc1ccccc1)C2 (stereo not given) please.
**A:** 201

**Q:** Report IC50 for CC1(C)c2cc(O)c(CCCOc3ccccc3)cc2OC1CCc1ccccc1 (stereo not given) please.
**A:** 38

**Q:** Reported IC50 for CCCc1cc2c(cc1O)C(C)(C)C(CCc1ccc(SC)cc1)O2 (stereo not given) : what is it?
**A:** 28

**Q:** // IC50 lookup, key: C=CCc1cc2c(cc1O)CC(CCc1ccccc1)O2 (stereo not given)
**A:** 10

**Q:** Looking for the measured IC50 of Oc1cc2c(cc1CCCOc1ccccc1)OC(CCc1ccccc1)C2 (stereo not given) , can you help?
**A:** 6

**Q:** So what's the measured IC50 for this one? Oc1cc2c(cc1CCCOc1ccccc1)OC(CCc1ccc(Cl)cc1)C2 (stereo not given)
**A:** 41

**Q:** Recorded IC50 of CCCc1c(OCCCc2cc3c(cc2O)CC(CCc2ccccc2)O3)ccc(C(C)=O)c1O (stereo not given) , please.
**A:** 9

**Q:** # lookup: IC50 of Oc1cc2c(cc1CCCSc1nc3ccccc3s1)OC(CCc1ccccc1)C2 (stereo not given)
**A:** 22

**Q:** Please report the recorded IC50 for Oc1ccc2c(c1)CC(CCc1ccccc1)O2 (stereo not given) .
**A:** 275

**Q:** Consider the compound COc1nc2c(SCCCc3cc4c(cc3O)CC(CCc3ccccc3)O4)cccc2cc1C(=O)O (stereo not given) and give its measured IC50.
**A:** 37

**Q:** # query: IC50 of entry Oc1cc2c(cc1CCCOc1ccccc1)OCC2
**A:** 57

**Q:** # get_value(readout='IC50', item= CCCc1c(O)c(CCCOc2ccc(C3N=NN=N3)cc2)cc2c1CC(CCc1ccccc1)O2 (stereo not given) )
**A:** 107

**Q:** Dear colleague, I am looking for the recorded IC50 of the following compound: CCCc1cc2c(cc1O)C(C)C(Cc1ccc(OC)cc1)O2 (stereo not given)
**A:** 18

**Q:** # input compound: C=CCc1cc2c(cc1O)C(C)(C)C(CCc1ccc(OC)cc1)O2 (stereo not given) ; wanted: its IC50
**A:** 47

**Q:** # query: IC50 of entry Oc1cc2c(cc1CCCSc1ccncc1)OC(CCc1ccccc1)C2 (stereo not given)
**A:** 14

---

- MEASUREMENT_TARGET: Polyunsaturated fatty acid 5-lipoxygenase (Rattus norvegicus, UniProt P12527)
- Sequence (P12527 whole entry): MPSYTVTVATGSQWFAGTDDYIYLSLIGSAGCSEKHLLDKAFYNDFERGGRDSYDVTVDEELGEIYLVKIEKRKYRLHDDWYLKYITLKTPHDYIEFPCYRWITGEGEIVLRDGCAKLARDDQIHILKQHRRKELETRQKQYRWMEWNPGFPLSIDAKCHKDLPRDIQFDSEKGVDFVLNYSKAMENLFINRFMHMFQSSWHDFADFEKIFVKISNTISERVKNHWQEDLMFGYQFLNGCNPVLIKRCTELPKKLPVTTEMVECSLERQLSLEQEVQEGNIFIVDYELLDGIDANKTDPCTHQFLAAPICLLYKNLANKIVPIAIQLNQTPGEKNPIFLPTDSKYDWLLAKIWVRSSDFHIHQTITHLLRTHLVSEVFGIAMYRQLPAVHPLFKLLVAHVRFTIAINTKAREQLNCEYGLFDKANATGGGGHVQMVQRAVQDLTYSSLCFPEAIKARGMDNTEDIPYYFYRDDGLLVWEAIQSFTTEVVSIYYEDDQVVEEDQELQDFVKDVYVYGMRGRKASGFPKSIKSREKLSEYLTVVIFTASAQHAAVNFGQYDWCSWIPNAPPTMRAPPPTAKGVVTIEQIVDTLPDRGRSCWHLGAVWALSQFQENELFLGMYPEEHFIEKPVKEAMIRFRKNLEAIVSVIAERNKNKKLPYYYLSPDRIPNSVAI
- ASSAY_SUMMARY: Tested for its inhibitory activity against arachidonic acid in rat 5-lipoxygenase.
Would you mind telling me the reported IC50 of each entry?
Record the value in nM, omitting the unit from your answer.

**Q:** Given the entry CCCc1cc2c(cc1O)C(C)(C)C(CCc1ccc(SC)cc1)O2 (stereo not given) , report its measured IC50.
**A:** 92

**Q:** State the recorded IC50 for this entry: Oc1cc2c(cc1CCCSc1nc3ccccc3s1)OC(CCc1ccccc1)C2 (stereo not given)
**A:** 45

**Q:** Can you share its IC50? I mean this compound: Oc1cc2c(cc1CCCOc1ccccc1)OC(CCc1ccccc1)C2 (stereo not given)
**A:** 23

**Q:** Dear colleague, I am looking for the recorded IC50 of the following compound: CC1(C)c2cc(O)c(CCCOc3ccccc3)cc2OC1CCc1ccccc1 (stereo not given)
**A:** 40

**Q:** Quick one: IC50 of C=CCc1cc2c(cc1O)C(C)(C)C(Cc1ccc(OC)cc1)O2 (stereo not given) ?
**A:** 164

---

- Species: Canis familiaris
- ASSAY_SUMMARY: Effect on methemoglobin formation in canine venous blood containing heparin
- Assay type: functional, Canis lupus familiaris
Give measured Formation for each item. Keep answers brief.
// units = %; emit number, no label

**Q:** Reported Formation for COc1nc2c(SCCCc3cc4c(cc3O)CC(CCc3ccccc3)O4)cccc2cc1C(=O)O (stereo not given) : what is it?
**A:** 1

**Q:** Reported Formation, molecule Oc1cc2c(cc1CCCSc1nc3ccccc3s1)OC(CCc1ccccc1)C2 (stereo not given) : ____
**A:** 1

**Q:** Can you share its Formation? I mean this molecule: CCCc1c(OCCCc2cc3c(cc2O)CC(CCc2ccccc2)O3)ccc(C(C)=O)c1O (stereo not given)
**A:** 3

**Q:** # lookup: Formation of CCCc1c(O)c(CCCOc2ccc(C3N=NN=N3)cc2)cc2c1CC(CCc1ccccc1)O2 (stereo not given)
**A:** 2

**Q:** Param item = C=CCc1c(O)ccc2c1CC(CCc1ccccc1)O2 (stereo not given) ; retrieve measured Formation.
**A:** 18

---

- ASSAY_SUMMARY: Peak concentration of drug in rat plasma after oral dosing at 20 mg/kg. Concentration of parent compound was measured before (free) and after (total) beta-glucuronidase treatment; total 0.5 uM
- Assay type: ADME, organism-based
- Set-up: dose 20 mg/kg, route oral
- TEST_SETTINGS: read-out: Plasma level
MEASURE_NAME: Cmax
Lab note: write values as number then unit, every time.

**Q:** What measured Cmax goes with Oc1cc2c(cc1CCCOc1ccccc1)OC(CCc1ccccc1)C2 (stereo unspecified) ?
**A:** 300 nM

---

- Organism: Canis familiaris
- ASSAY_SUMMARY: Effect on methemoglobin formation in canine venous blood containing heparin
- Format: functional, Canis lupus familiaris
MEASURE_NAME: Formation (%)
Hi! Could you send only the number? It should be in %, unit omitted.

**Q:** Endpoint output: Formation of COc1ccc(CC2Oc3ccc(O)cc3C2C)cc1 (stereo not drawn) . Value?
**A:** 6

**Q:** Tell me the measured Formation of O=C(O)c1ccc(OCCCc2cc3c(cc2O)CC(CCc2ccccc2)O3)cc1 (stereo not drawn) , please.
**A:** 3

**Q:** // query Formation value for entry Oc1cc2c(cc1CCCOc1ccccc1)OC(CCc1ccc(Cl)cc1)C2 (stereo not drawn)
**A:** 2.8

**Q:** Given the entry C=CCc1cc2c(cc1O)C(C)(C)C(Cc1ccc(OC)cc1)O2 (stereo not drawn) , report its measured Formation.
**A:** 1

**Q:** // lookup Formation for Oc1cc2c(cc1CCCOc1ccccc1)OC(CCc1ccccc1)C2 (stereo not drawn)
**A:** 4

**Q:** Any idea what its Formation is? The compound is C=CCc1cc2c(cc1O)CC(CCc1ccccc1)O2 (stereo not drawn)
**A:** 52

**Q:** Value lookup for Formation; key = CCCc1c(O)c(CCCOc2ccccc2)cc2c1CC(CCc1ccccc1)O2 (stereo not drawn)
**A:** 2

**Q:** Which Formation value belongs to C=CCc1cc2c(cc1O)C(C)(C)C(CCc1ccc(OC)cc1)O2 (stereo not drawn) ?
**A:** 2

**Q:** I would be grateful if you could share the reported Formation for Oc1cc2c(cc1CCCSc1ccncc1)OC(CCc1ccccc1)C2 (stereo not drawn) .
**A:** 6

**Q:** Quick one: Formation for CCCc1cc2c(cc1O)C(C)C(Cc1ccc(OC)cc1)O2 (stereo not drawn) ?
**A:** 6

**Q:** Would you kindly share the measured Formation for CC1(C)c2cc(O)c(CCCOc3ccccc3)cc2OC1CCc1ccccc1 (stereo not drawn) ?
**A:** 6

**Q:** If you can, please state the reported Formation value of Oc1ccc2c(c1)CC(CCc1ccccc1)O2 (stereo not drawn) .
**A:** 40

**Q:** Record request: Formation value, item Oc1cc2c(cc1Cc1ccccc1)OC(CCc1ccccc1)C2 (stereo not drawn)
**A:** 6
